From: patent US20250026849A1

Target: T1, BCMA (Homo sapiens (Human), UniProt Q02223 1-54, limits assumed)
T1 sequence: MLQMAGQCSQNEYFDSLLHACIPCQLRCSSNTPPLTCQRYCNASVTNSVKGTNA
Assay: ELISA, format not described
Parameters: unit not given here
Reported ELISA_avg values for the following binders.
property: ELISA_avg

* D-domain SEQ ID NO: 152 (designed binder) MGSWVEFNARLDAILFRLRALGGSEAELAAFEKEIAAFESELQAYKGKGNPEVEHLRDQAAYIRLMLQAYRHN | 13.5
* D-domain SEQ ID NO: 311 (designed binder) MGSWDYFKYGLALIKIKLEALGGSEAELADFEVWIAQFEMALQVYKGKGNPEVEALRKEAAAIRDELQAYRHN | 15.8
* D-domain SEQ ID NO: 322 (designed binder) MGSWREFKYGLAHIKRVLEALGGSEAELAVFEYYIAKFEQELQEYKGKGNPEVEALRKEAAAIRDELQAYRHN | 14.7
